target.entity: Calmodulin-1 (Homo sapiens)
test.details: CALM1 binders on microarrays, EGTA buffer, profiling panel, biochemical, small-molecule microarray, Cy5-labelled CALM1 (AID 1111);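 further: labelled calmodulin applied in Tris saline Tween buffer holding calcium plus EGTA and DTT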
experimental.conditions: Cy5-CALM1 binding fluorescence, higher = more signal
Classification field: enter 1 for composite z-score values not below 0.4, -1 for values below it.

[
  {
    "molecule": "COCCOC(=O)N1C(=O)[C@@]2(c3cc(C#CC4(O)CCCCCC4)ccc31)[C@H](C(N)=O)[C@H]1C(=O)O[C@H](c3ccccc3)[C@H](c3ccccc3)N1[C@@H]2c1ccc(O)cc1",
    "assigned.category": -1
  },
  {
    "molecule": "[N-]=[N+]=Nc1ccccc1C[C@]1(C(=O)NCc2ccccc2)N=C(c2ccc(OCCCO)cc2)O[C@H]1c1ccccc1",
    "assigned.category": 1
  },
  {
    "molecule": "CCOC(=O)[C@H]1C/C=C/C[C@H](C(=O)OCC)C(=O)O[C@H]2[C@@H](OC)O[C@H](CO)[C@@H](OC(=O)Nc3ccc(OC)cc3)[C@@H]2OC1=O",
    "assigned.category": 1
  },
  {
    "molecule": "CN1C(=O)[C@@]2(CCS(=O)(=O)c3ccccc3)N=C(c3ccc(OCCCO)cc3)O[C@H]2c2ccccc21",
    "assigned.category": 1
  },
  {
    "molecule": "COc1cc(CO)cc(I)c1O[C@H]1C=C(C(=O)NCCO)C[C@@H](N(Cc2ccc(F)cc2)C(=O)C2CCCO2)[C@@H]1O (stereo partly specified)",
    "assigned.category": -1
  },
  {
    "molecule": "C=CCOC(=O)[C@@H]1[C@H]2C(=O)O[C@H](c3ccccc3)[C@H](c3ccccc3)N2[C@H](c2ccc(OCCOC(=O)[C@H]3C[C@H]4C(=O)N[C@@H](CC(C)C)C(=O)N4[C@H]3c3ccc(O)cc3)cc2)[C@@]12C(=O)Nc1ccc(I)cc12",
    "assigned.category": -1
  }
]
